Numbers sourced from the PolyMetriX glass transition set.

For each entry below, report its glass transition temperature value.
Dear colleague, please return just the value in °C, with no unit written.

Request: Please look up its glass transition temperature: *Oc1ccc(NC(=O)c2ccc(Oc3ccc(C(C)(C)c4cccc(C(C)(C)c5ccc(Oc6ccc(C(=O)Nc7ccc(Oc8ccc(-c9ccc(*)cc9)cc8)cc7)cc6)cc5)c4)cc3)cc2)cc1 (repeat unit)
Result: 167.00

Request: Entry *CCCCCCOC(=O)C(CCCCCCP(=O)(OCC)OCC)C(=O)OCCCCCCOc1ccc(-n2on2-c2ccc(O*)cc2)cc1 (repeat unit) please
Result: 9.00

Request: Entry *c1ccc(-c2ccc(N3C(=O)c4ccc(S(=O)(=O)c5ccc6c(c5)C(=O)N(*)C6=O)cc4C3=O)cc2C(F)(F)F)c(C(F)(F)F)c1 (repeat unit) please
Result: 320.00

Request: Entry *c1ccc(Oc2ccc(C(=O)c3cccc(C(=O)c4ccc(Oc5ccc(-c6c7c(c(*)c8ccccc68)C(=O)N(CCCCCCCCCCCC)C7=O)cc5)cc4)c3)cc2)cc1 (repeat unit) please
Result: 140.00

Request: Entry *Nc1ccc(NC(=O)c2cc(NC(=O)c3ccncc3)cc(C(*)=O)c2)cc1 (repeat unit) please
Result: 327.00

Request: Entry *CC(*)(C)C(=O)OCc1cccc(Cl)c1 (repeat unit) please
Result: 18.2
